Biological target: AKR1C3 (Homo sapiens, UniProt P42330)
Construct: gift of Professor Trevor Penning (University of Pennsylvania School of Medicine)
Assay: Steady state kinetic parameters of fluorogenic substrates with purified AKR1C isozymes
Format: biochemical
Conditions: isozyme 1C3; potassium phosphate buffer pH 6, NADPH, fluorimetric
Tag: YES if measured Kcat is not below 0.1 s⁻¹, NO if it is.

Determine whether this compound has Kcat no lower than 0.1 s⁻¹: `CC(=O)c1cc(=O)oc2c3c(ccc12)NCCC3`
YES

In plain terms: is recorded Kcat at least 0.1 s⁻¹ for `O=C1CCc2c1c1cc3c4c(c1oc2=O)CCCN4CCC3` ?
YES

Test whether the compound O=C(c1ccccc1)c1cc(=O)oc2c3c4c(cc12)CCCN4CCC3 [drawing 210] records Kcat of 0.1 s⁻¹ or higher.
NO

Record `CC(=O)c1cc(=O)oc2cc(N(C)C)ccc12` ; criterion: Kcat no lower than 0.1 s⁻¹. Met?
YES

Evaluate `CC(=O)c1cc(=O)oc2cc3c(cc12)CCCN3` : Kcat at minimum 0.1 s⁻¹?
YES

Threshold query (Kcat >= 0.1 s⁻¹) on C[C@]12CCC(=O)C[C@@H]1CC[C@@H]1[C@@H]2CC[C@]2(C)[C@@H](O)CC[C@@H]12 [5α-dihydrotestosterone, reference compound]
NO

Quick check: does CC(=O)c1cc(=O)oc2c3c4c(cc12)CCCN4CCC3 [drawing 207] have Kcat greater than or equal to 0.1 s⁻¹?
YES

====

Please respond with reported Km for every item in the list.
Molecular target: AKR1C4 (Homo sapiens)
Construct: gift of the Penning lab (University of Pennsylvania School of Medicine)
Sequence (P17516 whole entry): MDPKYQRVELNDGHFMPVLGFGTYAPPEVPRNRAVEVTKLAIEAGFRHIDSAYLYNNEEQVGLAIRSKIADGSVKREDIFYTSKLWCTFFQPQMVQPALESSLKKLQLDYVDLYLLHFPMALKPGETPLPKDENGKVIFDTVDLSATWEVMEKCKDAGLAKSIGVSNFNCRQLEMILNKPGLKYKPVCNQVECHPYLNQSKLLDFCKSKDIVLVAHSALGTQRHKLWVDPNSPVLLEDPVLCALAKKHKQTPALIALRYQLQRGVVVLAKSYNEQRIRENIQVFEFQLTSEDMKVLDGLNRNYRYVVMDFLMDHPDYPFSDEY
Test: Steady state kinetic parameters of fluorogenic substrates with purified AKR1C isozymes
Type: biochemical
Settings: isozyme 1C4; potassium phosphate buffer pH 6, NADPH, fluorimetric
Report the value in µM with no unit label.

Sample O=C(c1ccccc1)c1cc(=O)oc2c3c4c(cc12)CCCN4CCC3 [drawing 210] — what was its Km?
6.2

What value of Km has been reported for the following compound? CC(=O)c1cc(=O)oc2c3c4c(cc12)CCCN4CCC3 [drawing 207]
20.6

# Km lookup, item `CC(=O)c1cc(=O)oc2c3c(ccc12)NCCC3`
40.2

Entry `CC(=O)c1cc(=O)oc2cc(N(C)C)ccc12` : reported Km = ?
14.8

====

Target: AKR1C3 (Homo sapiens, UniProt P42330)
Construct: gift of Professor Trevor Penning (University of Pennsylvania School of Medicine)
Sequence (P42330 1-323): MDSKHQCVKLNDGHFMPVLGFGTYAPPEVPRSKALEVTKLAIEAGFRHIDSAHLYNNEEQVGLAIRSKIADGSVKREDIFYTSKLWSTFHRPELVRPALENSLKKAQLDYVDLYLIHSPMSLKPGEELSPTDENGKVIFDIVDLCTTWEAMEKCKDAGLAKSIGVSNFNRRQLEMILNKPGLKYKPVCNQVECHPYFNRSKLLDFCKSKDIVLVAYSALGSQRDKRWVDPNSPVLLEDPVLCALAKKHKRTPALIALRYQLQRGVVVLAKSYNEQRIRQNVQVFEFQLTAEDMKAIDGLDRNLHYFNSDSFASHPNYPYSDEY
Test: Steady state kinetic parameters of fluorogenic substrates with purified AKR1C isozymes
Assay type: biochemical
Conditions: isozyme 1C3; potassium phosphate buffer pH 6, NADPH, fluorimetric
I'd appreciate it if you could supply Km values for the items below.
Give a bare numeral; the unit µM is implied.

Quick check: Km of `CC(=O)c1cc(=O)oc2c3c(ccc12)NCCC3` ?
8.3

If you can, please state the reported Km value of C[C@]12CCC(=O)C[C@@H]1CC[C@@H]1[C@@H]2CC[C@]2(C)[C@@H](O)CC[C@@H]12 [5α-dihydrotestosterone, reference compound] .
26

Entry under review: O=C(c1ccccc1)c1cc(=O)oc2c3c4c(cc12)CCCN4CCC3 [5c] . Reported Km?
0.05

Which Km value is on record for `CC(=O)c1cc(=O)oc2cc(N(C)C)ccc12` ?
4.3

Given CC(=O)c1cc(=O)oc2c3c4c(cc12)CCCN4CCC3 [drawing 207] , state its recorded Km.
1.1

Fill in: Km of O=C(c1ccccc1)c1cc(=O)oc2c3c4c(cc12)CCCN4CCC3 [drawing 210] is ___
0.051

Return reported Km; argument: `CC(=O)c1cc(=O)oc2cc3c(cc12)CCCN3`
4.3

Using the record for `O=C1CCc2c1c1cc3c4c(c1oc2=O)CCCN4CCC3` , report its Km.
0.13
